# measurement protocol: Solubility assay by visual observation and manual dilution
# Assay type: physicochemical
# measurement setup: organic solvent or mixture, thermodynamic from solid; room temperature; solvent Methanol (MeOH)
measured metric: solubility

The compound identified as COC(=O)CCC/C=C(\C)[C@H]1CC[C@H]2[C@@H]3CC=C4C[C@@H](OC5C=C[C@H](OC(C)=O)[C@@H](COC(C)=O)O5)CC[C@]4(C)[C@H]3CC[C@]12C (stereo partly shown) [compound 1] registered its solubility at 6900 to 8200 µg/mL

* * *

# measurement protocol: Solubility assay by visual observation and manual dilution
# Assay type: physicochemical
# measurement setup: organic solvent or mixture, thermodynamic from solid; room temperature; solvent Acetone
measured metric: solubility

The molecule identified as COC(=O)CCC/C=C(\C)[C@H]1CC[C@H]2[C@@H]3CC=C4C[C@@H](OC5C=C[C@H](OC(C)=O)[C@@H](COC(C)=O)O5)CC[C@]4(C)[C@H]3CC[C@]12C (stereo partly shown) registered its solubility at > 100 mg/mL

* * *

# measurement protocol: Solubility assay by visual observation and manual dilution
# Type: physicochemical
# measurement setup: organic solvent or mixture, thermodynamic from solid; room temperature; solvent Methyl tert-butyl ether (MTBE)
measured metric: solubility

The molecule identified as COC(=O)CCC/C=C(\C)[C@H]1CC[C@H]2[C@@H]3CC=C4C[C@@H](OC5C=C[C@H](OC(C)=O)[C@@H](COC(C)=O)O5)CC[C@]4(C)[C@H]3CC[C@]12C (stereo partly shown) [compound 1] registered its solubility at > 85.4 mg/mL

* * *

# measurement protocol: Solubility assay by visual observation and manual dilution
# Assay type: physicochemical
# measurement setup: organic solvent or mixture, thermodynamic from solid; room temperature; solvent Ethanol (EtOH)
measured metric: solubility

The molecule identified as COC(=O)CCC/C=C(\C)[C@H]1CC[C@H]2[C@@H]3CC=C4C[C@@H](OC5C=C[C@H](OC(C)=O)[C@@H](COC(C)=O)O5)CC[C@]4(C)[C@H]3CC[C@]12C (stereo partly shown) registered its solubility at 5100 to 6400 µg/mL

* * *

# measurement protocol: Solubility assay by visual observation and manual dilution
# Format: physicochemical
# measurement setup: organic solvent or mixture, thermodynamic from solid; room temperature; solvent 1-butanol
measured metric: solubility

The compound identified as COC(=O)CCC/C=C(\C)[C@H]1CC[C@H]2[C@@H]3CC=C4C[C@@H](OC5C=C[C@H](OC(C)=O)[C@@H](COC(C)=O)O5)CC[C@]4(C)[C@H]3CC[C@]12C (stereo partly shown) registered its solubility at 26 to 52 mg/mL

* * *

# measurement protocol: Solubility assay by visual observation and manual dilution
# Format: physicochemical
# measurement setup: organic solvent or mixture, thermodynamic from solid; room temperature; solvent Chloroform
measured metric: solubility

The molecule identified as COC(=O)CCC/C=C(\C)[C@H]1CC[C@H]2[C@@H]3CC=C4C[C@@H](OC5C=C[C@H](OC(C)=O)[C@@H](COC(C)=O)O5)CC[C@]4(C)[C@H]3CC[C@]12C (stereo partly shown) registered its solubility at > 100 mg/mL

* * *

# measurement protocol: Solubility assay by visual observation and manual dilution
# Assay type: physicochemical
# measurement setup: organic solvent or mixture, thermodynamic from solid; room temperature; solvent Anisole
measured metric: solubility

The compound identified as COC(=O)CCC/C=C(\C)[C@H]1CC[C@H]2[C@@H]3CC=C4C[C@@H](OC5C=C[C@H](OC(C)=O)[C@@H](COC(C)=O)O5)CC[C@]4(C)[C@H]3CC[C@]12C (stereo partly shown) [compound 1] registered its solubility at > 100 mg/mL

* * *

# measurement protocol: Solubility assay by visual observation and manual dilution
# Format: physicochemical
# measurement setup: organic solvent or mixture, thermodynamic from solid; room temperature; solvent Dichloromethane (DCM)
measured metric: solubility

The compound identified as COC(=O)CCC/C=C(\C)[C@H]1CC[C@H]2[C@@H]3CC=C4C[C@@H](OC5C=C[C@H](OC(C)=O)[C@@H](COC(C)=O)O5)CC[C@]4(C)[C@H]3CC[C@]12C (stereo partly shown) registered its solubility at > 100 mg/mL

* * *

# measurement protocol: Solubility assay by visual observation and manual dilution
# Format: physicochemical
# measurement setup: organic solvent or mixture, thermodynamic from solid; room temperature; solvent n-propanol
measured metric: solubility

The compound identified as COC(=O)CCC/C=C(\C)[C@H]1CC[C@H]2[C@@H]3CC=C4C[C@@H](OC5C=C[C@H](OC(C)=O)[C@@H](COC(C)=O)O5)CC[C@]4(C)[C@H]3CC[C@]12C (stereo partly shown) registered its solubility at 26.1 to 52.1 mg/mL

* * *

# measurement protocol: Solubility assay by visual observation and manual dilution
# Format: physicochemical
# measurement setup: thermodynamic from solid; room temperature; solvent Water (H2O)
measured metric: solubility

The molecule identified as COC(=O)CCC/C=C(\C)[C@H]1CC[C@H]2[C@@H]3CC=C4C[C@@H](OC5C=C[C@H](OC(C)=O)[C@@H](COC(C)=O)O5)CC[C@]4(C)[C@H]3CC[C@]12C (stereo partly shown) registered its solubility at < 1 mg/mL

* * *

# measurement protocol: Solubility assay by visual observation and manual dilution
# Format: physicochemical
# measurement setup: organic solvent or mixture, thermodynamic from solid; room temperature; solvent Methyl ethyl ketone (MEK)
measured metric: solubility

The compound identified as COC(=O)CCC/C=C(\C)[C@H]1CC[C@H]2[C@@H]3CC=C4C[C@@H](OC5C=C[C@H](OC(C)=O)[C@@H](COC(C)=O)O5)CC[C@]4(C)[C@H]3CC[C@]12C (stereo partly shown) registered its solubility at > 100 mg/mL

* * *

# measurement protocol: Solubility assay by visual observation and manual dilution
# Format: physicochemical
# measurement setup: organic solvent or mixture, thermodynamic from solid; room temperature; solvent Acetonitrile (ACN)
measured metric: solubility

The molecule identified as COC(=O)CCC/C=C(\C)[C@H]1CC[C@H]2[C@@H]3CC=C4C[C@@H](OC5C=C[C@H](OC(C)=O)[C@@H](COC(C)=O)O5)CC[C@]4(C)[C@H]3CC[C@]12C (stereo partly shown) registered its solubility at > 82.6 mg/mL

* * *

# measurement protocol: Solubility assay by visual observation and manual dilution
# Type: physicochemical
# measurement setup: organic solvent or mixture, thermodynamic from solid; room temperature; solvent 1,4-dioxane
# Procedure: Solubility assay was performed by visual observation and manual dilution at room temperature. […] The total amount of the solvent was recorded to calculate the solubility for each solvent.
measured metric: solubility

The molecule identified as COC(=O)CCC/C=C(\C)[C@H]1CC[C@H]2[C@@H]3CC=C4C[C@@H](OC5C=C[C@H](OC(C)=O)[C@@H](COC(C)=O)O5)CC[C@]4(C)[C@H]3CC[C@]12C (stereo partly shown) registered its solubility at > 100 mg/mL

* * *

# measurement protocol: Solubility assay by visual observation and manual dilution
# Assay type: physicochemical
# measurement setup: organic solvent or mixture, thermodynamic from solid; room temperature; solvent N,N-dimethylformamide (DMF)
measured metric: solubility

The compound identified as COC(=O)CCC/C=C(\C)[C@H]1CC[C@H]2[C@@H]3CC=C4C[C@@H](OC5C=C[C@H](OC(C)=O)[C@@H](COC(C)=O)O5)CC[C@]4(C)[C@H]3CC[C@]12C (stereo partly shown) registered its solubility at > 100 mg/mL

* * *

# measurement protocol: Solubility assay by visual observation and manual dilution
# Format: physicochemical
# measurement setup: organic solvent or mixture, thermodynamic from solid; room temperature; solvent Isopropanol (IPA)
measured metric: solubility

The molecule identified as COC(=O)CCC/C=C(\C)[C@H]1CC[C@H]2[C@@H]3CC=C4C[C@@H](OC5C=C[C@H](OC(C)=O)[C@@H](COC(C)=O)O5)CC[C@]4(C)[C@H]3CC[C@]12C (stereo partly shown) registered its solubility at 5100 to 6800 µg/mL

Sourced from patent US12103945B2
